FYI, the data here is from patent US20240018136A1.

- experimental.system: CDK4/Cyclin D1 (Homo sapiens, UniProt P11802)
- Sequence (P11802 whole entry): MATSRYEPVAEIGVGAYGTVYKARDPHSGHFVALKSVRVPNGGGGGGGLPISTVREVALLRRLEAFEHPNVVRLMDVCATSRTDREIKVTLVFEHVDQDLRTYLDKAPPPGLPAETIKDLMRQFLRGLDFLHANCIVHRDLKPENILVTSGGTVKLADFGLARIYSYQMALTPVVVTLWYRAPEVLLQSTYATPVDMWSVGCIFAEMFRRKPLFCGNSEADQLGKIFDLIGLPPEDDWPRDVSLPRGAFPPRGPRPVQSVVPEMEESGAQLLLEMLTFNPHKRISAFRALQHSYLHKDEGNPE
- Sequence (P24385 whole entry partner): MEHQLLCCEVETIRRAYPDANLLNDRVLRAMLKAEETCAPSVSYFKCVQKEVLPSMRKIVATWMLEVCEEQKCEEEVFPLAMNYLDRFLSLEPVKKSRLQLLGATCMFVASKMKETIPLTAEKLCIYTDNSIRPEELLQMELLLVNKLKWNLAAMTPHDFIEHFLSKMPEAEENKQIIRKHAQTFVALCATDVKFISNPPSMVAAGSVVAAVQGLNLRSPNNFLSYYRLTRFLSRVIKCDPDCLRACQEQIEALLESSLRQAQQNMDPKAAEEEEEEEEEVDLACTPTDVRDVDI
- test.method.notes: CDK4/CyclinD1 enzymatic activity assay (TR-FRET)
- experimental.parameters: ATP 2 mM final, read-out: CDK4_D1 IC50
pIC50: −log10 of the molar value.
Answer each item with its documented pIC50.

Dear colleague, could you please provide pIC50 for the compounds listed below?
1. CCS(=O)(=O)N1CCC(Nc2ncc(C(F)(F)F)c(-c3cnc(C)s3)n2)CC1
2. CC(O)c1ncc(-c2nc(NC3CCN(S(=O)(=O)c4cn(C)cn4)CC3)ncc2C(F)(F)F)s1 (centres unmarked)
3. CS(=O)(=O)N1CCC(Nc2ncc(C(F)(F)F)c(-c3cnc(Cl)s3)n2)CC1
4. Cc1ncc(-c2nc(NC3CCN(S(=O)(=O)C4CC4)CC3)ncc2C(F)(F)F)s1
5. C[C@@H]1CN(S(=O)(=O)c2cn(C)cn2)CC[C@@H]1Nc1ncc(C(F)(F)F)c(-c2cnc(CC(C)(C)O)s2)n1

Reply:
1: 6.00 to 7.00; 2: ≥ 7.00; 3: 6.00 to 7.00; 4: 6.00 to 7.00; 5: 6.00 to 7.00
